target: TYK2 JH2 domain (Homo sapiens (Human)); assay: TYK2 JH2 NanoBRET assay; format: binding; settings: Table 20, read-out: TYK2 IC50
Overview of reported IC50 across a group of compounds:

>  <COMPOUND>
CCC(=O)c1cnc(Nc2ccc(OC3CN(C)C3)nn2)cc1Nc1cccc(-c2ncn(C)n2)c1OC

>  <TESTED_TARGET>
TYK2 JH2 domain (Homo sapiens (Human))

>  <IC50>
5 to 50 nM

$$$$

Input line: Please look at CCC(=O)c1cnc(Nc2ccc(-n3nc(C)ccc3=O)cn2)cc1Nc1cccc(-c2ncn(C)n2)c1OC [Compound 15Z] and tell me its recorded IC50 on TYK2 JH2 domain (Homo sapiens (Human)).
Output line: 5 to 50 nM

Input line: Please look at CCC(=O)c1cnc(Nc2ccc(CN)cn2)cc1Nc1cccc(-c2ncn(C)n2)c1OC and tell me its recorded IC50 on TYK2 JH2 domain (Homo sapiens (Human)).
Output line: < 5 nM

Input line: Please look at CCC(=O)c1cnc(Nc2cccc(C(=O)N(C)C)n2)cc1Nc1cccc(-c2ncn(C)n2)c1OC and tell me its recorded IC50 on TYK2 JH2 domain (Homo sapiens (Human)).
Output line: 5 to 50 nM

====

molecular target: TYK2 JH2 domain (Homo sapiens (Human)); experiment: TYK2 JH2 NanoBRET assay; format: binding; details: Table 20, read-out: TYK2 IC50
OBSERVED_PROPERTY: IC50

>  <COMPOUND>
CCC(=O)c1cnc(Nc2cc(CN3CCCC3)ncn2)cc1Nc1cccc(-c2ncn(C)n2)c1OC

>  <OBSERVED_PROPERTY>
IC50

>  <MEAS_VALUE>
< 5 nM

$$$$
>  <COMPOUND>
CCC(=O)c1cnc(Nc2ccc(CN3CC4(CCO4)C3)cn2)cc1Nc1cccc(-c2ncn(C)n2)c1OC

>  <OBSERVED_PROPERTY>
IC50

>  <MEAS_VALUE>
< 5 nM

$$$$
>  <COMPOUND>
CCC(=O)c1cnc(Nc2ccc(CN3CCCC3)cn2)cc1Nc1cccc(-c2ncn(C)n2)c1OC

>  <OBSERVED_PROPERTY>
IC50

>  <MEAS_VALUE>
< 5 nM

$$$$
>  <COMPOUND>
CCC(=O)c1cnc(Nc2cnc(O[C@@H]3CCCN(C)C3)cn2)cc1Nc1cccc(-c2ncn(C)n2)c1OC

>  <OBSERVED_PROPERTY>
IC50

>  <MEAS_VALUE>
5 to 50 nM

$$$$

Input line: Please look at CCC(=O)c1cnc(Nc2cnc(CCNC)cn2)cc1Nc1cccc(-c2ncn(C)n2)c1OC [Compound 11H] and tell me its recorded IC50 on TYK2 JH2 domain (Homo sapiens (Human)).
Output line: 50 to 500 nM

Input line: Please look at CCC(=O)c1cnc(Nc2ccn(CC3CCOC3)n2)cc1Nc1cccc(-c2ncn(C)n2)c1OC (stereo not shown) [Compound 21T] and tell me its recorded IC50 on TYK2 JH2 domain (Homo sapiens (Human)).
Output line: 5 to 50 nM

Input line: Please look at CCC(=O)c1cnc(Nc2nc(CN3CCCC3)ns2)cc1Nc1cccc(-c2ncn(C)n2)c1OC [Compound 21H] and tell me its recorded IC50 on TYK2 JH2 domain (Homo sapiens (Human)).
Output line: 50 to 500 nM

====

molecular target: TYK2 JH2 domain (Homo sapiens (Human), UniProt P29597); assay: TYK2 JH2 NanoBRET assay; type: binding; conditions: HEK293T cells, Table 19, read-out: IC50 (nM), TYK2 activity
Sequence (P29597 589-875): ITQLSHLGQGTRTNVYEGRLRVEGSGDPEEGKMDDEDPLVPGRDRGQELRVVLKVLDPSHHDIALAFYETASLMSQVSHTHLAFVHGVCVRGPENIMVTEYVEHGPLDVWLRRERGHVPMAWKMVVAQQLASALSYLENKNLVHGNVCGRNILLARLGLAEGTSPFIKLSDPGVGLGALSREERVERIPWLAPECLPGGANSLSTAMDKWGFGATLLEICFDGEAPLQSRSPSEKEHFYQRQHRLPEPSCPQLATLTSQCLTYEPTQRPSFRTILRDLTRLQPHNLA
OBSERVED_PROPERTY: IC50

>  <COMPOUND>
COc1c(Nc2cc(NC(=O)C3CCC3)ncc2C(C)=O)cccc1-c1ncn(C)n1 [Compound 1J]

>  <TESTED_TARGET>
TYK2 JH2 domain (Homo sapiens (Human), UniProt P29597)

>  <IC50>
5 to 50 nM

$$$$

Input line: Give the reported value of IC50 for this record: COc1c(Nc2cc(NC(=O)N(C)C)ncc2C(C)=O)cccc1-c1ncn(C)n1 [Compound 1P]
Output line: 50 to 500 nM

Input line: Give the reported value of IC50 for this record: COc1c(Nc2cc(Nc3cc(C)ccn3)ncc2C(C)=O)cccc1-c1ncn(C)n1 [Compound 7D]
Output line: < 5 nM

Input line: Give the reported value of IC50 for this record: COc1c(Nc2cc(NC(=O)OC(C)(C)C)ncc2C(C)=O)cccc1-c1ncn(C)n1 [Compound 1D]
Output line: 50 to 500 nM

Input line: Give the reported value of IC50 for this record: COc1c(Nc2cc(NC(=O)[C@H]3C[C@H]3F)ncc2C(C)=O)cccc1-c1ncn(C)n1 [Compound 1L]
Output line: 5 to 50 nM

Input line: Give the reported value of IC50 for this record: COc1c(Nc2cc(Nc3cc(C)c(F)cn3)ncc2C(C)=O)cccc1-c1ncn(C)n1 [Compound 7L]
Output line: < 5 nM

Input line: Give the reported value of IC50 for this record: COc1c(Nc2cc(Nc3ccc(F)cn3)ncc2C(C)=O)cccc1-c1ncn(C)n1 [Compound 7H]
Output line: < 5 nM

Input line: Give the reported value of IC50 for this record: COc1c(Nc2cc(NC(=O)CN3CCOCC3)ncc2C(C)=O)cccc1-c1ncn(C)n1 [Compound 1O]
Output line: 50 to 500 nM

Input line: Give the reported value of IC50 for this record: COc1c(Nc2cc(N)ncc2C(C)=O)cccc1-c1ncn(C)n1 [Compound 2]
Output line: ≥ 500 nM

Input line: Give the reported value of IC50 for this record: COc1c(Nc2cc(Nc3cnn(C)c3)ncc2C(C)=O)cccc1-c1ncn(C)n1 [Compound 7T]
Output line: 50 to 500 nM

Attribution: patent US20230295119A1
